Target: human TAS1R2-I191V/TAS1R3-WT (Homo sapiens, UniProt Q7RTX0+Q8TE23, I191V)
Sequence (Q8TE23 20-839 I191V): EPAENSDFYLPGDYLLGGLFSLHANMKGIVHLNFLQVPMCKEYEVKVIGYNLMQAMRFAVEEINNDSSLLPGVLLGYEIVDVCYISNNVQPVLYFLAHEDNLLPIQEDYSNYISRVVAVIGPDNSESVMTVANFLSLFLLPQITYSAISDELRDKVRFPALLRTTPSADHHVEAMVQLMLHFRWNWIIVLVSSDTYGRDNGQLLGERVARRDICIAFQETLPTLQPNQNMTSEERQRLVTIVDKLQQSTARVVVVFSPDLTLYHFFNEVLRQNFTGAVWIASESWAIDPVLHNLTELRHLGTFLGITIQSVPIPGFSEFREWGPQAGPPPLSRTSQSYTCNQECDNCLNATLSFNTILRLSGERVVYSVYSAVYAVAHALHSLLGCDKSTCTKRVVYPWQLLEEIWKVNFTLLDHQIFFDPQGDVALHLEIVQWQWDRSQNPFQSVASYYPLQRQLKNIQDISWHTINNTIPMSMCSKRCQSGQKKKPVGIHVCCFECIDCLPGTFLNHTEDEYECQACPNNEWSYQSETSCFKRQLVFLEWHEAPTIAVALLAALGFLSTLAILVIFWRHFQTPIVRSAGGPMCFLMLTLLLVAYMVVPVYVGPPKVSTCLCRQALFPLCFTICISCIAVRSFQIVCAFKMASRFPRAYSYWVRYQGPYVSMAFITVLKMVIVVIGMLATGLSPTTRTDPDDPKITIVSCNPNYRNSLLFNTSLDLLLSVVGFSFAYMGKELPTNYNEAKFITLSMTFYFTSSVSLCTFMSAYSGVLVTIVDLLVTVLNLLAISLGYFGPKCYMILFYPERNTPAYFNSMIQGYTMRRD
Sequence (Q7RTX0 21-852): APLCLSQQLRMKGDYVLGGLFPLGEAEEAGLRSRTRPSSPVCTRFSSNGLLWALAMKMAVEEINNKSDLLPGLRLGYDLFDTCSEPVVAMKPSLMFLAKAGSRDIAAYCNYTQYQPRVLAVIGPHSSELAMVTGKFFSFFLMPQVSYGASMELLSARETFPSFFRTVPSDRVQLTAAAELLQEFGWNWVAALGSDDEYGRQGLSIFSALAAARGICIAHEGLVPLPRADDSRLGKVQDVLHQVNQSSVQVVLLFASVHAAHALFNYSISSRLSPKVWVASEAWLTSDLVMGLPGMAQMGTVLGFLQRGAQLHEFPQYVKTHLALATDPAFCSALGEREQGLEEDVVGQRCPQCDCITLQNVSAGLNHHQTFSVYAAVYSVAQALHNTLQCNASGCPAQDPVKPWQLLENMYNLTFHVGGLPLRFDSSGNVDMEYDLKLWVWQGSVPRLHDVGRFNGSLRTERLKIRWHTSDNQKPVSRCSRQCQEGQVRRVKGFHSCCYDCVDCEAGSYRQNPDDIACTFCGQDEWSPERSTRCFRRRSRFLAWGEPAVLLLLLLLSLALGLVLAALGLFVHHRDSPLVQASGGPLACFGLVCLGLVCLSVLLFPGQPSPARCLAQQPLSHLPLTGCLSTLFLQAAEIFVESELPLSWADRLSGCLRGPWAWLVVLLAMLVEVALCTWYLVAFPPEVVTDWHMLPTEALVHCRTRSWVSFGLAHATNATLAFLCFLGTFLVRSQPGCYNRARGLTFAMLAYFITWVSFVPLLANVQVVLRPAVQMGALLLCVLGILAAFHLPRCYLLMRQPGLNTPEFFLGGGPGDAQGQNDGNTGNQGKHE
Assay: Calcium mobilisation assay, TAS1R2 variant I191V with TAS1R3-WT
Threshold-based label: EC50 under 100 µM gives T, EC50 not under 100 µM gives F.

Compound: COC(=O)[C@H](Cc1ccccc1)NC(=O)[C@H](CC(=O)O)NCCC(C)(C)C [Neotame]
Tgt: human TAS1R2-I191V/TAS1R3-WT (Homo sapiens, UniProt Q7RTX0+Q8TE23, I191V)
Class Assignment: T

Compound: COc1ccc(CCC(=O)c2c(O)cc(O[C@@H]3O[C@H](CO)[C@@H](O)[C@H](O)[C@H]3O[C@@H]3O[C@@H](C)[C@H](O)[C@@H](O)[C@H]3O)cc2O)cc1O [NHDC, neohesperidin dihydrochalcone]
Tgt: human TAS1R2-I191V/TAS1R3-WT (Homo sapiens, UniProt Q7RTX0+Q8TE23, I191V)
Class Assignment: F

Compound: CC1=CC(=O)NS(=O)(=O)O1 [Acesulfame K, acesulfame K]
Tgt: human TAS1R2-I191V/TAS1R3-WT (Homo sapiens, UniProt Q7RTX0+Q8TE23, I191V)
Class Assignment: F

Compound: O=S(=O)(O)NC1CCCCC1 [Cyclamate, cyclamate]
Tgt: human TAS1R2-I191V/TAS1R3-WT (Homo sapiens, UniProt Q7RTX0+Q8TE23, I191V)
Class Assignment: F

Compound: C=C(C)[C@@H]1CC=C(/C=N/O)CC1 [Perillartine, perillartine]
Tgt: human TAS1R2-I191V/TAS1R3-WT (Homo sapiens, UniProt Q7RTX0+Q8TE23, I191V)
Class Assignment: T

Provenance of the data: paper PMC11945486
